The origin of these recorded values is patent US20250341517A1.

Would you mind telling me the reported change (%) of fluorescence in solution (S) of each entry?
# target or system: T1, Anti-HRP antibody(r)
# T1 construct: Rabbit IgG, immobilised on a microplate; also called rabbit anti-HRP antibodies; anti-HRP antibody from a rabbit
# assay text: labelled peptide on antibody immobilised on microplate; antigen HRP
Ends that are not written are not given here. FAM = carboxyfluorescein (FAM) fluorescent label
Please provide the amount together with its unit, number first.

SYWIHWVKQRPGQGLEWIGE (not fully specified (N-terminus), Synthetic 20-mer homologous to the FR2 region of the heavy chain; The fluorescent label differs between experiments; also called H1 switching peptide; third peptide compound H1) [H1 peptide] yielded change (%) of fluorescence in solution (S) of 746%

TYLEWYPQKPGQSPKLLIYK (not fully specified (N-terminus), Synthetic 20-mer homologous to the FR2 region of the light chain; The label differs between experiments; also called L1 switching peptide; first peptide compound L1) [L1 peptide] yielded change (%) of fluorescence in solution (S) of 357%

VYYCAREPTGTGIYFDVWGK (not fully specified (N-terminus), Synthetic 20-mer homologous to the FR3 or FR4 region of the heavy chain; The label differs between experiments; also called H2 switching peptide; fourth peptide compound H2) [H2 peptide] yielded change (%) of fluorescence in solution (S) of 698%

{FAM}-VYYCFQGSHVPFTK (Synthetic 14-mer homologous to the FR3 or FR4 region of the light chain; also called L2 switching peptide; second peptide compound L2) [L2 peptide] yielded change (%) of fluorescence in solution (S) of 597%
